target under test: human TGR5 receptor (Homo sapiens, UniProt Q8TDU6)
Sequence (Q8TDU6 whole entry): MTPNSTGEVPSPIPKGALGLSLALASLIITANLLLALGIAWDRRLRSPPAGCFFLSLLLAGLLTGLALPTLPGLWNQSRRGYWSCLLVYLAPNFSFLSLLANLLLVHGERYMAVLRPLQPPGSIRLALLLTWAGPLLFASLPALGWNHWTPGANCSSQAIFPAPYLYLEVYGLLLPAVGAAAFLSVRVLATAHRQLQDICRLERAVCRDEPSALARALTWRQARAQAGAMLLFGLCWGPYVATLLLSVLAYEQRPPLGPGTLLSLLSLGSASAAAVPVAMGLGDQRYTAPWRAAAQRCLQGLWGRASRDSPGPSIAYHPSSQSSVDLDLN
experimental protocol: Human TGR5 cAMP production assay (hTGR5-CHO cells, DiscoveRx cAMP XS+ kit)
recorded conditions: luminescent cAMP assay, read-out: Human TGR5 Lum. cAMP Activity (EC50)
pEC50: −log10 of the molar value.
experimental readout: pEC50

Report pEC50 for each item below.
1. N#Cc1ccc(CCNC(=O)[C@@H]2CCN2c2cc(N3CCC(CCNC(=O)NCCOCCNC(=O)C(F)(F)F)CC3)nc(C(F)(F)F)n2)cc1
2. COC(=O)[C@@H](N)CCCCNC(=O)NCCC1CCN(c2cc(N3CC[C@H]3C(=O)NCCc3ccc(C#N)cc3)nc(C(F)(F)F)n2)CC1
3. CN(C)CCN1CCN(c2cc(N3CCC[C@H]3C(=O)NCCc3ccc(C#N)cc3)nc(C(F)(F)F)n2)CC1
4. N#Cc1ccc(CCNC(=O)[C@@H]2CCCN2c2cc(-c3ccc(CNC(=O)NCCS(=O)(=O)O)cc3)nc(C(F)(F)F)n2)cc1
5. N#Cc1ccc(CCNC(=O)[C@@H]2CCCN2c2cc(-c3cccc(CCC(=O)NCCS(=O)(=O)O)c3)nc(C(F)(F)F)n2)cc1

Found:
> 7.00
> 7.00
6.00 to 7.00
6.00 to 7.00
4.52 to 6.00

Lookup: Reported pEC50, compound N[C@@H](CCC(=O)NCCCC1CCN(c2cc(N3CCC[C@H]3C(=O)NCCc3ccc(C(F)(F)F)cc3)nc(C(F)(F)F)n2)CC1)C(=O)O : ____
Found: > 7.00

----------
target under test: UniProtKB Q8TDU6
experimental protocol: Human TGR5 cAMP production assay (hTGR5-CHO cells, DiscoveRx cAMP XS+ kit)
recorded conditions: luminescent cAMP assay, read-out: Human TGR5 Lum. cAMP Activity (EC50)
pEC50: −log10 of the molar value.
Answer each item with its documented pEC50.

Some entries whose results are on file:
>  <input smiles>
N#Cc1ccc(CCNC(=O)[C@@H]2CCCN2c2cc(N3CCC(CO)CC3)nc(C(F)(F)F)n2)cc1

>  <pEC50>
> 7.00

$$$$
>  <input smiles>
N#Cc1ccc(CCNC(=O)[C@@H]2CCCN2c2cc(N3CCC(CCCC(=O)NCCNc4ncc(C(=O)NCCS(=O)(=O)O)cn4)CC3)nc(C(F)(F)F)n2)cc1

>  <pEC50>
> 7.00

$$$$
>  <input smiles>
O=C(O)C(=O)N1CCN(c2cc(N3CCC[C@@H](C(=O)NCCc4ccc(C(F)(F)F)cc4)C3)nc(C(F)(F)F)n2)CC1

>  <pEC50>
6.00 to 7.00

$$$$

Report pEC50 for each item below.
1. N#Cc1ccc(CCNC(=O)[C@@H]2CCCN2c2cc(-c3ccc(CO)cc3)cc(C(F)(F)F)n2)cc1
2. O=C(NCCc1ccc(C(F)(F)F)cc1)[C@@H]1CCCN(c2cc(NCCO)nc(C(F)(F)F)n2)C1
3. N#Cc1ccc(CCNC(=O)[C@@H]2CCCN2c2cc(N3CCC(CCC(=O)O)CC3)nc(C(F)(F)F)n2)cc1
4. CNC(=O)c1cc(-c2cc(N3CCC[C@H]3C(=O)NCCc3ccc(C#N)cc3)nc(C(F)(F)F)n2)cs1
5. N#Cc1ccc(CCNC(=O)[C@@H]2CCCN2c2cc(-c3ccc(CCC(=O)NCCS(=O)(=O)O)cc3)nc(C(F)(F)F)n2)cc1

Found:
> 7.00
6.00 to 7.00
6.00 to 7.00
4.52 to 6.00
> 7.00

Measured values drawn from patent US10654834B2 for this set.
